Reference for the values: PubChem BioAssay (NCATS)

Molecular target: Catechol O-methyltransferase (Homo sapiens) (UniProt P21964)
Sequence (P21964 whole entry, looked up): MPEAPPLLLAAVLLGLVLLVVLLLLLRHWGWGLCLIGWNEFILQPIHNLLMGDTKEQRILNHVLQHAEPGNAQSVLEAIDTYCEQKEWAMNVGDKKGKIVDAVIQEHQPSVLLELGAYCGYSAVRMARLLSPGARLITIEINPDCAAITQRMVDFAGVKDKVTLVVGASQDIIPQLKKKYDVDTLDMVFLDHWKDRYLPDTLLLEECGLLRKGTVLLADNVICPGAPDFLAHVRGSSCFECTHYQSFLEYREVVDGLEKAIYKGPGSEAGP
Test: Confirmatory Screen for Target Class Profiling of Small Molecule Inhibitors of Methyltransferases (AID 1745852)
Settings: MTase-Glo luminescence, SAH detection, recombinant enzyme; measured here: COMT max response; stronger effect = lower value
reported.metric: activity (%)

>  <molecule>
Cc1cnc(CCNC(=O)c2cccs2)n1C1CCC1

>  <reported.metric>
activity

>  <observed.measurement>
0.518

$$$$
>  <molecule>
c1ccc(CCN2CCNc3cc(NCc4cccnc4)ncc3C2)cc1

>  <reported.metric>
activity

>  <observed.measurement>
2.5

$$$$
>  <molecule>
Cn1c(=O)n(C)c2cc(S(=O)(=O)N3CCN(C4CCCCC4)CC3)c(Cl)cc21

>  <reported.metric>
activity

>  <observed.measurement>
-1.77

$$$$
>  <molecule>
O=C(NCCc1ccccc1)N1CCn2cccc2C1Cc1ccccc1 (stereo unspecified)

>  <reported.metric>
activity

>  <observed.measurement>
0.987

$$$$
>  <molecule>
CC(C)CCNC(=O)c1ccc2c(=O)[nH]c3c(C(=O)NC(C)C)sc(=S)n3c2c1

>  <reported.metric>
activity

>  <observed.measurement>
-37.8

$$$$
>  <molecule>
COc1ccc(CNc2cc3c(cn2)CN(Cc2ccccc2)CCN3)cc1OC

>  <reported.metric>
activity

>  <observed.measurement>
2.46

$$$$

----------
Target: Glucocorticoid receptor (Homo sapiens) (UniProt P04150)
Sequence (P04150 whole entry, looked up): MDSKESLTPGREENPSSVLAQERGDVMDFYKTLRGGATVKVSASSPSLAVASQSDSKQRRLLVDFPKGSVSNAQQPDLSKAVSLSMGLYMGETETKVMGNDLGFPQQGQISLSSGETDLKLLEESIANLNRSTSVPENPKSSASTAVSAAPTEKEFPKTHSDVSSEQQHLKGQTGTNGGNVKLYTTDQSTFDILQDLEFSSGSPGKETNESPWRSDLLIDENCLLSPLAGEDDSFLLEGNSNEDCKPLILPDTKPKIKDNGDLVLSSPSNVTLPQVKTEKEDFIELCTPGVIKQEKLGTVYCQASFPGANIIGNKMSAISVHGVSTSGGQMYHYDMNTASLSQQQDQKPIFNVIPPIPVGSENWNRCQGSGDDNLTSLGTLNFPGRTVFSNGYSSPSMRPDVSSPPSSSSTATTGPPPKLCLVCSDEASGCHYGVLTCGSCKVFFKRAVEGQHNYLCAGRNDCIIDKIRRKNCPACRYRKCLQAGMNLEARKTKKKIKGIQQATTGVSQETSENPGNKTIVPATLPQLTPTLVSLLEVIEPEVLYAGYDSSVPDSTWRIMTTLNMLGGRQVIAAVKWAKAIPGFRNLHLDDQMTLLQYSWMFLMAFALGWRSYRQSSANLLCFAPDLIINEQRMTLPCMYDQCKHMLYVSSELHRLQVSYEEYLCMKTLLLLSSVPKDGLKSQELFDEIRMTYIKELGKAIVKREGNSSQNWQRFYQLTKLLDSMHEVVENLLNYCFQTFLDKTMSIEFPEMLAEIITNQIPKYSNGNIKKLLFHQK
Assay: qHTS assay for small molecule antagonists of glucocorticoid receptor signaling (AID 588533);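 note: cells stimulated with 2 nM dexamethasone as agonist; % is set by controls: 0 for no effect and ±100 for the full control effect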
Details: HeLa MMTV-bla, GRE beta-lactamase ratio, antagonist mode, 18 h; series mostly up to 76.8 µM
Inconclusive results are not listed. Activity calls are given as the source filed them. Calls come from the whole dose curve; as a rule, active = well fitted inhibition curve with a large enough effect in the signal ratio, with a control signal flat (not every such curve was filed as active); inconclusive = small, poorly fitted or top-dose-only effect, or effect the other way, or a change in a side signal; inactive = flat fitted curve, though single readings scatter; the % refers to the signal ratio.
reported.metric: outcome

>  <compound>
C1OCOCO1

>  <assay.system>
Glucocorticoid receptor (Homo sapiens) (UniProt P04150)

>  <reported.metric>
outcome

>  <observed.measurement>
inactive

$$$$
>  <compound>
Cc1c(N=C=O)cccc1N=C=O

>  <assay.system>
Glucocorticoid receptor (Homo sapiens) (UniProt P04150)

>  <reported.metric>
outcome

>  <observed.measurement>
inactive

$$$$
>  <compound>
O=C(O)c1ccc(O)cc1O

>  <assay.system>
Glucocorticoid receptor (Homo sapiens) (UniProt P04150)

>  <reported.metric>
outcome

>  <observed.measurement>
inactive

$$$$
>  <compound>
CCC(O)OC(O)CC (configuration not stated)

>  <assay.system>
Glucocorticoid receptor (Homo sapiens) (UniProt P04150)

>  <reported.metric>
outcome

>  <observed.measurement>
inactive

$$$$
>  <compound>
C=C(C)C1CC=C(C)C(O)C1 (configuration not stated)

>  <assay.system>
Glucocorticoid receptor (Homo sapiens) (UniProt P04150)

>  <reported.metric>
outcome

>  <observed.measurement>
inactive

$$$$
>  <compound>
c1ccccc1

>  <assay.system>
Glucocorticoid receptor (Homo sapiens) (UniProt P04150)

>  <reported.metric>
outcome

>  <observed.measurement>
inactive

$$$$
>  <compound>
O=C(O)c1ccccc1C(c1ccc(O)cc1)c1ccc(O)cc1

>  <assay.system>
Glucocorticoid receptor (Homo sapiens) (UniProt P04150)

>  <reported.metric>
outcome

>  <observed.measurement>
inactive

$$$$

----------
Biological target: Rap guanine nucleotide exchange factor 3 (Homo sapiens) (UniProt O95398)
Test: Counterscreen qHTS for agonist of cAMP-regulated guanine nucleotide exchange factor 3 (EPAC1) (AID 1645889); note: % of control where 0% means no effect; nearly all actives have a fitted effect of over 40% in size
Settings: EPAC1 Rap1B-BODIPY-GDP exchange, fluorescence; series mostly up to 154 µM
Inconclusive results are not listed. Calls of active or inactive are those of the source. The call rests on the fitted dose curve; in most records, active means well fitted activation curve with a large enough effect; inconclusive means small, poorly fitted or top-dose-only effect, or another doubt; inactive means no such curve, though single readings can be large or run the other way.
reported.metric: activation

>  <compound>
c1cncc(-c2nc(NCCCN3CCOCC3)c3c4c(sc3n2)CCC4)c1

>  <reported.metric>
activation

>  <observed.measurement>
inactive

$$$$
>  <compound>
CCc1nc2c(OCc3ccc(C(=O)N(C)C)cc3)cccn2c1N(C)C(=O)c1ccc(C)cc1

>  <reported.metric>
activation

>  <observed.measurement>
21.1% [at 30.8 µM] (inactive)

$$$$
>  <compound>
CCC(CC)C(=O)N1c2ccccc2C(C)(c2ccccc2)CC1(C)C (stereo unspecified)

>  <reported.metric>
activation

>  <observed.measurement>
inactive

$$$$
>  <compound>
CC(OC(=O)c1ccccc1Oc1ccccc1)C(=O)NC1CC1 (stereo unspecified)

>  <reported.metric>
activation

>  <observed.measurement>
inactive

$$$$
>  <compound>
NS(=O)(=O)c1ccc(N=Nc2ccc(=O)[nH]c2O)cc1

>  <reported.metric>
activation

>  <observed.measurement>
-0.888% [at 30.8 µM] (inactive)

$$$$
>  <compound>
COc1cc(/C=C2/SC(=S)N(CC(=O)O)C2=O)ccc1OC(=O)c1cccs1

>  <reported.metric>
activation

>  <observed.measurement>
inactive

$$$$
>  <compound>
CC(=O)OCCNc1cc(N2CCN(C)CC2)c2noc3c2c1C(=O)c1ccccc1-3

>  <reported.metric>
activation

>  <observed.measurement>
inactive

$$$$
>  <compound>
Cc1ccc(-c2nnc(Nc3ccc4c(c3)nc(C)n4C)c3ccccc23)cc1

>  <reported.metric>
activation

>  <observed.measurement>
12% [at 30.8 µM] (inactive)

$$$$
>  <compound>
Cn1c(N)c(C(=O)COC(=O)Cc2ccc(Cl)c(Cl)c2)c(=O)n(C)c1=O

>  <reported.metric>
activation

>  <observed.measurement>
inactive

$$$$
>  <compound>
Cc1cccc2sc(N(CCCN(C)C)C(=O)CCS(=O)(=O)c3ccccc3)nc12

>  <reported.metric>
activation

>  <observed.measurement>
inactive

$$$$
>  <compound>
Oc1ccc(NCc2ccc(OCc3ccccc3)cc2)cc1

>  <reported.metric>
activation

>  <observed.measurement>
16.4% [at 30.8 µM] (inactive)

$$$$
>  <compound>
Cc1cc(C)c(C(=O)c2ccccc2)c(C)c1

>  <reported.metric>
activation

>  <observed.measurement>
inactive

$$$$
>  <compound>
O=C(Nc1ccc(Br)cc1C(=O)O)c1ccc2c(c1)C(=O)N(Cc1ccccc1)C2=O

>  <reported.metric>
activation

>  <observed.measurement>
inactive

$$$$
>  <compound>
Cc1cccc(C)c1-c1ccc(CN2C(CC(C)C)C(=O)N(Cc3cn(CCO)nn3)CCS2(=O)=O)cc1 (stereo unspecified)

>  <reported.metric>
activation

>  <observed.measurement>
18.7% [at 30.8 µM] (inactive)

$$$$
>  <compound>
Cc1c2cc(O)c(=O)cc-2oc2cc(O)c(O)cc12

>  <reported.metric>
activation

>  <observed.measurement>
0.526% [at 30.8 µM] (inactive)

$$$$
>  <compound>
COc1cc(/C=C2/NC(=O)NC2=O)cc(Br)c1OCc1ccc(C(=O)O)cc1

>  <reported.metric>
activation

>  <observed.measurement>
11.1% [at 30.8 µM] (inactive)

$$$$
>  <compound>
O=[N+]([O-])c1ccc(NS(=O)(=O)c2ccc(Cl)c(Cl)c2)cc1

>  <reported.metric>
activation

>  <observed.measurement>
inactive

$$$$
>  <compound>
O=S(=O)(Nc1nc2ccccc2nc1Nc1cccc(S(=O)(=O)N2CCCCC2)c1)c1ccccc1

>  <reported.metric>
activation

>  <observed.measurement>
25.8% [at 30.8 µM] (inactive)

$$$$
>  <compound>
O=C(O)c1ccccc1NS(=O)(=O)c1ccc(N/N=C/c2cccc(O)c2O)c([N+](=O)[O-])c1

>  <reported.metric>
activation

>  <observed.measurement>
inactive

$$$$
>  <compound>
Cc1ccc(-c2nc3ccc(C)cn3c2Cc2ccccc2C(F)(F)F)cc1

>  <reported.metric>
activation

>  <observed.measurement>
inactive

$$$$
>  <compound>
CCOc1nc(C)cc(C)c1S(=O)(=O)c1cccc(Cl)c1

>  <reported.metric>
activation

>  <observed.measurement>
inactive

$$$$
